# assayOverview: CHI Log D procedure
# Assay type: physicochemical
# runParameters: pH 7.4
CHI Log D reference
Reply with just the number.

Problem: Consider the compound shown here: CC(=O)N1CCC[C@]12CC=CCCCC1(CCCC=CCCCCCC[C@@](C)(C(=O)N[C@@H](Cc3ccccc3)C(=O)N[C@@H](Cc3csc4ccccc34)C(N)=O)NC(=O)[C@H](CCCNC(N)=O)NC(=O)[C@H](Cc3ccccc3)NC(=O)[C@H](C)NC(=O)[C@H](C)NC(=O)[C@H](CCC(=O)O)NC(=O)[C@H](CC(=O)O)NC1=O)NC(=O)[C@H](CC(C)C)NC(=O)[C@H](CC(=O)O)NC2=O (stereo partly drawn) [I-628] What is its recorded CHI Log D?
Result: 3.103

Problem: # input compound: CC[C@H](C)[C@@H]1NC(=O)[C@H](CC(=O)O)NC(=O)[C@]2(CC=CCCCC3(CCCC=CCCCCCC[C@@](C)(C(=O)N[C@@H](Cc4ccccc4)C(=O)N[C@@H](Cc4c[nH]c5ccccc45)C(N)=O)NC(=O)[C@H](CCC(N)=O)NC(=O)[C@H](Cc4ccccc4)NC(=O)[C@H](C)NC(=O)[C@H](C)NC(=O)[C@H](CCC(=O)O)NC(=O)[C@H](CC(=O)O)NC3=O)NC1=O)CCCN2C(C)=O (stereo partly drawn) [I-191] ; wanted: its CHI Log D
Result: 2.412

Problem: Item under review: CC(=O)N1CCC[C@]12CC=CCCCC1(CCCC=CCCCOC(=O)N3CC[C@@](C(=O)N[C@@H](Cc4ccsc4)C(=O)N[C@@H](Cc4csc5ccccc45)C(=O)N[C@@H](Cc4c[nH]cn4)C(N)=O)(C3)NC(=O)[C@H](CC(N)=O)NC(=O)[C@H](Cc3ccccc3)NC(=O)[C@H](C)NC(=O)[C@H](C)NC(=O)[C@H](CCC(=O)O)NC(=O)[C@H](CC(=O)O)NC1=O)NC(=O)[C@H](CC(C)(C)C)NC(=O)[C@H](CC(=O)O)NC2=O (stereo partly drawn) [I-697] . Reported CHI Log D?
Result: 2.093
